# Test system: human eosinophils
# assay_explanation: Inhibition of eosinophil activation by formyl-MetLeuPhe (fMLP); oxidative burst (lucigenin chemiluminescence)
# Type: cell-based
# stated_conditions: fMLP 1 μM, lucigenin 25 μM, purified human eosinophils
endpoint_name: IC50 (nM)
API: value field is a number in nM; no unit string.

// IC50 lookup, key: Nc1cc2cccnc2c(-c2cccc3nonc23)n1
6
